The measured values listed here are drawn from ChEMBL document CHEMBL5137093.

- protocol: Cmax in Sprague-Dawley rat at 3 ml/kg,po measured upto 24 hrs by UPLC-MS/MS analysis
- Assay type: ADME
- Design: dose 3 ml/kg, time < 24 hrs, route po
- condition_set: in vivo, 24 h
value_kind: Cmax (nM)

(I) COC(=O)N[C@H](C(=O)N[C@@H](Cc1ccccc1)[C@H](CN(Cc1ccc(-c2ccccn2)cc1)NC(=O)[C@@H](NC(=O)OC)C(C)(C)C)OC(=O)OC(OC(=O)C1(N)CC1)C(C)C)C(C)(C)C (stereo in doubt; 3y)
(II) COC(=O)N[C@H](C(=O)N[C@@H](Cc1ccccc1)[C@H](CN(Cc1ccc(-c2ccccn2)cc1)NC(=O)[C@@H](NC(=O)OC)C(C)(C)C)OC(=O)OC(OC(=O)[C@H](C(C)C)N(C)C)C(C)C)C(C)(C)C (stereo in doubt; 5g)
(III) COC(=O)N[C@H](C(=O)N[C@@H](Cc1ccccc1)[C@H](CN(Cc1ccc(-c2ccccn2)cc1)NC(=O)[C@@H](NC(=O)OC)C(C)(C)C)OC(=O)OC(OC(=O)[C@@H](NC(=O)[C@@H](N)C(C)C)C(C)C)C(C)C)C(C)(C)C (stereo in doubt; 6f)
(IV) COC(=O)N[C@H](C(=O)N[C@@H](Cc1ccccc1)[C@H](CN(Cc1ccc(-c2ccccn2)cc1)NC(=O)[C@@H](NC(=O)OC)C(C)(C)C)OC(=O)OC(OC(=O)[C@H](N)C(C)C)C(C)C)C(C)(C)C (stereo in doubt; 5j)
(V) COC(=O)N[C@H](C(=O)N[C@@H](Cc1ccccc1)[C@H](CN(Cc1ccc(-c2ccccn2)cc1)NC(=O)[C@@H](NC(=O)OC)C(C)(C)C)OC(=O)OC(OC(=O)[C@H](N)C(C)C)C(C)C)C(C)(C)C (stereo in doubt; 5i)
Asked: Ranking field: Cmax; order: falling. // list labels; follow requested order
Given back: I, II, III, IV, V

---

- protocol: Cmax in Sprague-Dawley rat at 3 ml/kg,po measured upto 24 hrs by UPLC-MS/MS analysis
- Type: ADME
- Set-up: dose 3 ml/kg, time < 24 hrs, route po
- condition_set: in vivo, 24 h
value_kind: Cmax (nM)

Worked examples follow.
molecule	Cmax, nM
CCC(C)C(OC(=O)O[C@@H](CN(Cc1ccc(-c2ccccn2)cc1)NC(=O)[C@@H](NC(=O)OC)C(C)(C)C)[C@H](Cc1ccccc1)NC(=O)[C@@H](NC(=O)OC)C(C)(C)C)OC(=O)[C@@H](N)C(C)C (mixture of isomers)	805
CN[C@H](C(=O)OC(OC(=O)O[C@@H](CN(Cc1ccc(-c2ccccn2)cc1)NC(=O)[C@@H](NC(=O)OC)C(C)(C)C)[C@H](Cc1ccccc1)NC(=O)[C@@H](NC(=O)OC)C(C)(C)C)C(C)C)C(C)C (stereo in doubt; 5f)	382

(I) COC(=O)N[C@H](C(=O)N[C@@H](Cc1ccccc1)[C@H](CN(Cc1ccc(-c2ccccn2)cc1)NC(=O)[C@@H](NC(=O)OC)C(C)(C)C)OC(=O)OC(OC(=O)[C@@H](N)C(C)C)C1CCCCC1)C(C)(C)C (stereo in doubt; 4o)
(II) COC(=O)N[C@H](C(=O)N[C@@H](Cc1ccccc1)[C@H](CN(Cc1ccc(-c2ccccn2)cc1)NC(=O)[C@@H](NC(=O)OC)C(C)(C)C)OC(=O)OC(OC(=O)[C@@H](N)C(C)C)C1CCCCC1)C(C)(C)C (stereo in doubt; 4n)
Asked: Of I and II , whose reported Cmax is numerically smaller? The response must carry the label of the picked entry.
Given back: I
